Collected MIC values appear next to each entry.
Test system: Cryptococcus neoformans
Protocol text: Antifungal activity against Cryptococcus neoformans 05-202523 after 24 to 72 hrs by broth microdilution method
Assay type: functional
Respond numerically; units are µg/mL and should not be typed.

Examples with answers:
Prompt line: Please look up its MIC: `CC(C)CCc1cc[n+](CCCCCCCCCCCC[n+]2ccc(CCC(C)C)cc2)cc1.[Cl-].[Cl-]`
Response line: 11.8

Prompt line: And for `[Cl-].[Cl-].c1ccc(CCCc2cc[n+](CCCCCCCCCCCC[n+]3ccc(CCCc4ccccc4)cc3)cc2)cc1` ?
Response line: 27.9

---
Prompt line: Please look up its MIC: `CCCCCc1cc[n+](CCCCCCCCCCCC[n+]2ccc(CCCCC)cc2)cc1.[Cl-].[Cl-]`
Response line: 47.3

Prompt line: And for `C=CCCCc1cc[n+](CCCCCCCCCCCC[n+]2ccc(CCCC=C)cc2)cc1.[Cl-].[Cl-]` ?
Response line: 11.8

Prompt line: And for `CCCCCc1cccc[n+]1CCCCCCCCCCCC[n+]1ccccc1CCCCC.[Cl-].[Cl-]` ?
Response line: 47.3

Prompt line: And for `CCCCC(CCCC)c1cc[n+](CCCCCCCCCCCC[n+]2ccc(C(CCCC)CCCC)c(C)c2)cc1C.[Cl-].[Cl-]` ?
Response line: 3.7

Prompt line: And for `CCCCCc1cc[n+](CCCCCCCCCCCC[n+]2ccc(CCCCC)c(C)c2)cc1C.[Cl-].[Cl-]` ?
Response line: 12.7

Prompt line: And for `CC(C)(C)CCc1cc[n+](CCCCCCCCCCCC[n+]2ccc(CCC(C)(C)C)cc2)cc1.[Cl-].[Cl-]` ?
Response line: 25.3

Prompt line: And for `CCCCCCc1cc[n+](CCCCCCCCCCCC[n+]2ccc(CCCCCC)cc2)cc1.[Cl-].[Cl-]` ?
Response line: 6.3

Prompt line: And for `CCCCCc1cc[n+](CCCCCCCCCCCC[n+]2ccc(CCCCC)c(CCCCC)c2)cc1CCCCC.[Cl-].[Cl-]` ?
Response line: 7.5

---

Test system: Pichia kudriavzevii
Protocol text: Antifungal activity against Candida krusei after 24 to 72 hrs by broth microdilution method
Assay type: functional
Parameter: MIC90 (µg/mL)
Respond numerically; units are µg/mL and should not be typed.

Examples with answers:
Prompt line: Please look up its MIC90: `CCCCCc1cc[n+](CCCCCCCCCCCC[n+]2ccc(CCCCC)cc2)cc1.[Cl-].[Cl-]`
Response line: 5.91

Prompt line: And for C[C@@H](c1ncncc1F)[C@](O)(Cn1cncn1)c1ccc(F)cc1F [VORICONAZOLE] ?
Response line: 1

---
Prompt line: Please look up its MIC90: CC[C@H](C)C[C@H](C)CCCCCCCCC(=O)N[C@H]1C[C@@H](O)[C@@H](NCCN)NC(=O)[C@@H]2[C@@H](O)CCN2C(=O)[C@H]([C@H](O)CCN)NC(=O)[C@H]([C@H](O)[C@@H](O)c2ccc(O)cc2)NC(=O)[C@@H]2C[C@@H](O)CN2C(=O)[C@H]([C@@H](C)O)NC1=O [CASPOFUNGIN]
Response line: 0.5

Prompt line: And for `C=CCCCc1cc[n+](CCCCCCCCCCCC[n+]2ccc(CCCC=C)cc2)cc1.[Cl-].[Cl-]` ?
Response line: 5.87

---

Collected MFC90 values appear next to each entry.
Tested on: Pichia kudriavzevii
Protocol text: Antifungal activity against Candida krusei after 48 to 72 hrs
Type: functional
Respond numerically; units are µg/mL and should not be typed.

Examples with answers:
Prompt line: Please look up its MFC90: `CCCCCc1cc[n+](CCCCCCCCCCCC[n+]2ccc(CCCCC)c(C)c2)cc1C.[Cl-].[Cl-]`
Response line: 6.22

Prompt line: And for `CCCCCCc1cc[n+](CCCCCCCCCCCC[n+]2ccc(CCCCCC)cc2)cc1.[Cl-].[Cl-]` ?
Response line: 3.11

Prompt line: And for `C=CCCCc1cc[n+](CCCCCCCCCCCC[n+]2ccc(CCCC=C)cc2)cc1.[Cl-].[Cl-]` ?
Response line: 11.74

Kindly review the next molecule as well.
Prompt line: Please look up its MFC90: `CCCCCc1cc[n+](CCCCCCCCCCCC[n+]2ccc(CCCCC)cc2)cc1.[Cl-].[Cl-]`
Response line: 5.91

---

Test system: Pichia kudriavzevii
Protocol text: Antifungal activity against Candida krusei after 24 to 72 hrs by broth microdilution method
Type: functional
Parameter: MIC50
Kindly format the answer as number then unit.

Examples with answers:
Prompt line: // fetch Pichia kudriavzevii MIC50 for `CCCCCCc1cc[n+](CCCCCCCCCCCC[n+]2ccc(CCCCCC)cc2)cc1.[Cl-].[Cl-]`
Response line: 1.56 µg/mL

Prompt line: And for `CC[C@@H]([C@H](C)O)n1ncn(-c2ccc(N3CCN(c4ccc(OC[C@@H]5CO[C@@](Cn6cncn6)(c6ccc(F)cc6F)C5)cc4)CC3)cc2)c1=O` ?
Response line: 0.125 µg/mL

Prompt line: And for `CCCCCc1cc[n+](CCCCCCCCCCCC[n+]2ccc(CCCCC)c(C)c2)cc1C.[Cl-].[Cl-]` ?
Response line: 3.11 µg/mL

---
Prompt line: // fetch Pichia kudriavzevii MIC50 for `CC[C@H](C)C[C@H](C)CCCCCCCCC(=O)N[C@H]1C[C@@H](O)[C@@H](NCCN)NC(=O)[C@@H]2[C@@H](O)CCN2C(=O)[C@H]([C@H](O)CCN)NC(=O)[C@H]([C@H](O)[C@@H](O)c2ccc(O)cc2)NC(=O)[C@@H]2C[C@@H](O)CN2C(=O)[C@H]([C@@H](C)O)NC1=O`
Response line: 0.25 µg/mL

---

Tested on: Cryptococcus neoformans
Protocol text: Antifungal activity against Cryptococcus neoformans after 24 to 72 hrs by broth microdilution method
Format: functional
Parameter: MIC50 (mg/L)
Respond numerically; units are mg/L and should not be typed.

Prompt line: Please look up its MIC50: `CCCCCCc1cc[n+](CCCCCCCCCCCC[n+]2ccc(CCCCCC)cc2)cc1.[Cl-].[Cl-]`
Response line: 0.79

---
Prompt line: Please look up its MIC50: `C[C@@H]1[C@H](O)[C@@H](C)/C=C/C=C/C=C/C=C/C=C/C=C/C=C/[C@H](O[C@@H]2O[C@H](C)[C@@H](O)[C@H](N)[C@@H]2O)C[C@@H]2O[C@](O)(C[C@@H](O)C[C@@H](O)[C@H](O)CC[C@@H](O)C[C@@H](O)CC(=O)O[C@H]1C)C[C@H](O)[C@H]2C(=O)O`
Response line: 0.25

Prompt line: And for `CC[C@@H]([C@H](C)O)n1ncn(-c2ccc(N3CCN(c4ccc(OC[C@@H]5CO[C@@](Cn6cncn6)(c6ccc(F)cc6F)C5)cc4)CC3)cc2)c1=O` ?
Response line: 0.06

---

Collected MIC50 values appear next to each entry.
System: Candida dubliniensis
Protocol text: Antifungal activity against Candida dubliniensis after 24 to 72 hrs by broth microdilution method
Format: functional
Kindly format the answer as number then unit.

Examples with answers:
Prompt line: // fetch Candida dubliniensis MIC50 for CCC(C)n1ncn(-c2ccc(N3CCN(c4ccc(OCC5COC(Cn6cncn6)(c6ccc(Cl)cc6Cl)O5)cc4)CC3)cc2)c1=O (centres undefined)
Response line: 0.03 mg/L

Prompt line: And for `C=CCCCc1cc[n+](CCCCCCCCCCCC[n+]2ccc(CCCC=C)cc2)cc1.[Cl-].[Cl-]` ?
Response line: 1.47 mg/L

Prompt line: And for `C[C@@H](c1ncncc1F)[C@](O)(Cn1cncn1)c1ccc(F)cc1F` ?
Response line: 0.008 mg/L

---
Prompt line: // fetch Candida dubliniensis MIC50 for `CCCCCc1cc[n+](CCCCCCCCCCCC[n+]2ccc(CCCCC)cc2)cc1.[Cl-].[Cl-]`
Response line: 0.75 mg/L

---

System: Candida albicans
Protocol text: Antifungal activity against Candida albicans ATCC 90028 after 24 to 72 hrs by broth microdilution method
Format: functional
Parameter: MIC (µg/mL)
Respond numerically; units are µg/mL and should not be typed.

Examples with answers:
Prompt line: Please look up its MIC: `CCCCCc1cc[n+](CCCCCCCCCCCC[n+]2ccc(CCCCC)c(CCCCC)c2)cc1CCCCC.[Cl-].[Cl-]`
Response line: 1.86

Prompt line: And for `CC(C)(C)CCc1cc[n+](CCCCCCCCCCCC[n+]2ccc(CCC(C)(C)C)cc2)cc1.[Cl-].[Cl-]` ?
Response line: 3.2

Prompt line: And for `CCCCC(CCCC)c1cc[n+](CCCCCCCCCCCC[n+]2ccc(C(CCCC)CCCC)c(C)c2)cc1C.[Cl-].[Cl-]` ?
Response line: 1.86

Prompt line: And for `CCCCCc1cc[n+](CCCCCCCCCCCC[n+]2ccc(CCCCC)c(C)c2)cc1C.[Cl-].[Cl-]` ?
Response line: 1.58

Prompt line: And for `[Cl-].[Cl-].c1ccc(CCCc2cc[n+](CCCCCCCCCCCC[n+]3ccc(CCCc4ccccc4)cc3)cc2)cc1` ?
Response line: 1.74

Prompt line: And for `CCCCCc1cccc[n+]1CCCCCCCCCCCC[n+]1ccccc1CCCCC.[Cl-].[Cl-]` ?
Response line: 1.48

Prompt line: And for `CC(C)CCc1cc[n+](CCCCCCCCCCCC[n+]2ccc(CCC(C)C)cc2)cc1.[Cl-].[Cl-]` ?
Response line: 2.96

Prompt line: And for `C=CCCCc1cc[n+](CCCCCCCCCCCC[n+]2ccc(CCCC=C)cc2)cc1.[Cl-].[Cl-]` ?
Response line: 1.48

---
Prompt line: Please look up its MIC: `CCCCCc1cc[n+](CCCCCCCCCCCC[n+]2ccc(CCCCC)cc2)cc1.[Cl-].[Cl-]`
Response line: 1.48

Prompt line: And for `CCCCCCc1cc[n+](CCCCCCCCCCCC[n+]2ccc(CCCCCC)cc2)cc1.[Cl-].[Cl-]` ?
Response line: 0.79
